All values here come from ChEMBL document CHEMBL3232906.

# system: Ras-related C3 botulinum toxin substrate 1/T-lymphoma invasion and metastasis-inducing protein 1 (Homo sapiens, UniProt P63000+Q13009)
# protocol-description: Inhibition of Rac1-Tiam1 interaction in human smooth muscle cells assessed as reduction of PDGF-BB stimulated GTP bound Rac1 level preincubated for 4 hrs followed by PDGF-BB stimulation measured after 2 mins by G-LISA assay
experimental-endpoint: IC50 (nM)
Please state the figure in nM; there is no need to write the unit.

Challenge: Entry CCOC(=O)[C@]1(N)[C@@H]2C[C@@H](C[C@H]2c2cccc(Nc3ccc(N)cc3)c2)[C@@H]1Sc1ccccc1 (relative stereo) : reported IC50 = ?
Response given: 2500
